Each item that follows carries a reported viability increase.
- measurement notes: doxorubicin toxicity protection in MRP-1 cells – H69AR cells, CellTiter-Glo, duplicate, MRP-1 activator project, pilot screen (AID 807);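 further: compound pretreatment 18-22 h then 72 h combined with doxorubicin; 0% = doxorubicin alone and 100% = vehicle without doxorubicin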
- applied conditions: H69AR viability with doxorubicin, CellTiter-Glo luminescence; at 10 µM; stronger effect = higher value
The source made the active and inactive calls.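 How the source made its calls: active means viability increase at or above a cutoff of the median across tested compounds plus 3 SD (cut at about 8.5% in these data, passing the limit was not always enough); inconclusive means some gains above the cutoff, reason not given; inactive means the rest.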
readout kind: viability increase

INSERT INTO assay_data (molecule, reading) VALUES
  ('CC(=O)c1c(C)nc2ccc(Br)cc2c1C(=O)O', '-1.9% (inactive)'),
  ('CC(C)c1nnc(NC(=O)Cc2cccs2)s1', '-0.07% (inactive)'),
  ('COc1ccc(CNC(=O)CS(=O)Cc2nc(-c3ccc(C)cc3)oc2C)cc1 (configuration not stated)', '-2.44% (inactive)'),
  ('N=C1C(c2nc3ccccc3c(=O)[nH]2)=C(O)CN1CCc1ccccc1', '-3.19% (inactive)'),
  ('Cc1nc2c(-c3ccccc3)c(C)nn2c(C)c1CCC(=O)NCc1ccco1', '-3.51% (inactive)'),
  ('Cc1cc(C)cc(N(CC(=O)NC2CCC(C)CC2)S(=O)(=O)c2c(C)noc2C)c1 (configuration not stated)', '-1.82% (inactive)'),
  ('O=C(NCCN1C(=O)C2C3C=CC(C3)C2C1=O)N1CCCCC1 (configuration not stated)', '-0.67% (inactive)'),
  ('Cc1occc1C(=O)N1CCN(c2ncccn2)CC1', '-0.73% (inactive)'),
  ('Cc1ccc(C)c(NC(=O)C2CCC(C)(C(=O)O)C2(C)C)c1 (configuration not stated)', '-1.13% (inactive)'),
  ('CCOC(=O)CNc1nc(C(C)(C)C)nc2c1nnn2Cc1ccccc1Cl', '-1.19% (inactive)'),
  ('CCOc1ccc(NC(=O)CN(c2cc(C)cc(C)c2)S(=O)(=O)c2c(C)noc2C)cc1', '-3.54% (inactive)'),
  ('Cc1ccc2oc(=O)c3cnn(CC(=O)N4CCCCC4C)c3c2c1 (configuration not stated)', '-3.34% (inactive)'),
  ('CCn1cc(C2=NOC(C(=O)Nc3c(C)nn(Cc4ccc(F)cc4)c3C)C2)c(C)n1 (configuration not stated)', '1.43% (inactive)'),
  ('C(=N\c1c(-c2ccccc2)nc2n1CCS2)/c1ccccc1', '-4.2% (inactive)'),
  ('CC(=O)NCC(=O)N(Cc1ccco1)C1(C(=O)NC2CCCCC2)CCCCC1', '-5.15% (inactive)'),
  ('CC(O)CSc1nc2c(c(=O)n(C)c(=O)n2C)n1CCCc1ccccc1 (configuration not stated)', '0.66% (inactive)'),
  ('CC1CC(C)CN(Cc2nc3c(c(=O)n(C)c(=O)n3C)n2Cc2ccccc2Cl)C1 (configuration not stated)', '-1.15% (inactive)'),
  ('CCOc1ccc(NC(=O)c2cnc3scc(C)n3c2=O)cc1', '-1.16% (inactive)'),
  ('COc1cc(C(=O)N2c3ccccc3CC2C)cc(OC)c1OC (configuration not stated)', '-4.64% (inactive)'),
  ('CC1CCc2nn(CC(=O)Nc3ccc(F)cc3F)cc2C1 (configuration not stated)', '1.3% (inactive)'),
  ('CCOc1ccc(NC(=O)CSc2nc3c(c(=O)n2-c2ccccc2OC)SCC3)cc1', '-2.57% (inactive)'),
  ('O=C(CSc1nc2c(cnn2-c2ccc(F)cc2)c(=O)[nH]1)N1CCCCC1', '-3.71% (inactive)');
